melting point reference
Quantity Measured: melting point

{"columns": ["Compound", "Recorded Value"],
 "data": [
  ["COC(=O)C1=C(C)Nc2ccccc2NC1c1cccc(Cl)c1Cl (stereo unspecified)", "181 to 182 °C"],
  ["CN1CCN(c2ccc(F)cc2C=C2CCCN(c3ccc(Cl)cc3)C2=O)CC1", "158 to 159 °C"],
  ["COc1cccc(Nc2cc(=S)ss2)c1", "131 to 134 °C"],
  ["COc1cc(OC)c2c(=O)[nH]c(-c3ccc(OC)c(-c4ccc(C(=O)N(C)C)cc4Cl)n3)nc2c1", "271 to 272 °C"],
  ["O=C(OCCn1ccnc1)C(O)c1ccccc1 (stereo unspecified)", "131 to 132 °C"],
  ["Cc1cnccc1Nn1ccc2ccccc21", "78 to 80 °C"],
  ["COc1cccc2c1OC(CO)CN2 (stereo unspecified)", "108 to 110 °C"],
  ["N#CCCNC(=O)c1cc(F)cc(-c2cccc3cc(Cc4ccc(F)c(Cl)c4)sc23)c1", "127 to 128 °C"],
  ["CCCCc1c(Cl)nc(N=CN(C)C)nc1Cl", "66 to 68 °C"],
  ["CC(C)(C)c1cc(C(c2cc(C(C)(C)C)c(O)c(C(C)(C)C)c2)c2ccco2)cc(C(C)(C)C)c1O", "158 to 159 °C"],
  ["CN(C)CCCOC(=O)c1cccc2c(-c3ccccc3)c([N+](=O)[O-])oc12", "65.5 to 67.5 °C"],
  ["C[C@H](N)C(=O)NC1N=C(c2ccccc2Cl)c2cc(Cl)ccc2N(C)C1=O (stereo partly specified)", "232 to 233 °C"],
  ["C[C@@H]1C(=O)C[C@H]2C[C@@H]1OO[C@@]2(C)/C=C\\c1ccc(Br)c2ccccc12", "167 °C"],
  ["Fc1ccc2ncc3ncn(-c4ccccc4F)c3c2c1", "162 to 163 °C"],
  ["Nc1nc(-c2cc(Cl)ccc2Cl)nc(N2CCC[C@H]2C(=O)O)n1", "144 to 147 °C"],
  ["Cc1ncc2n1-c1ccccc1N(c1ccccc1)C(=O)C2", "217 to 220 °C"],
  ["CN(C)c1ccc(C=CC(O)c2cnc3sc4c(n23)CCCCC4)cc1 (stereo unspecified)", "168 to 170 °C"],
  ["CCOC(=O)C1=C(C)NC(c2ccccc2)=NC1c1ccccc1[N+](=O)[O-] (stereo unspecified)", "102 to 105 °C"],
  ["NCC(=O)N[C@@H]1CN2C(=O)N(c3cc(Cl)nc(Cl)c3)C(=O)[C@@]2(Cc2ccc(OC(F)(F)F)cc2)C1", "114 °C"],
  ["CCCc1c2c(c(O)c3c(=O)cc(C(=O)O)oc13)C(O)CCC2 (stereo unspecified)", "245 to 249 °C"],
  ["C=CCc1c(F)c(F)c(NN)c(F)c1F", "79 to 81 °C"],
  ["c1ccc(-c2cc3ccccc3s2)nc1", "124 to 126 °C"],
  ["C=CCN(CC=C)C(=O)n1cnc(S(C)(=O)=O)n1", "52 to 54 °C"],
  ["CC(C)(C(=O)NO)N(CCC(=O)O)S(=O)(=O)c1ccc(Oc2ccc(F)cc2)cc1", "162 °C"],
  ["Cc1cc(CCCCCOc2ccc(C3=NCCO3)cc2)on1", "102 to 104 °C"],
  ["COc1cc2c(OC)cccc2cc1-c1nc2cnccc2[nH]1", "178 to 180 °C"],
  ["O=C(c1ccncc1)N1CCN(Cc2ccc3c(c2)-c2[nH]nc(-c4ccsc4)c2C3)CC1", "168 to 170 °C"],
  ["COc1cc(Nc2c(C#N)cnc3sccc23)c(Cl)cc1Cl", "197 to 199 °C"],
  ["CCc1c2nc(-c3cc(S(C)(=O)=O)ccc3OCC(C)C)[nH]c(=O)c2nn1C1CCN(C)CC1", "292 to 295 °C"],
  ["COc1cccc2c1CCN(C(=O)C(F)(F)F)CC2", "74 to 76 °C"],
  ["CCC(C)(C)c1ccc(OCCCCNC(=O)CS(=O)(=O)c2ccc([N+](=O)[O-])cc2)c(C(C)(C)CC)c1", "36 to 37 °C"],
  ["COc1nc(C)cc(-n2cncn2)n1", "98 to 98.5 °C"],
  ["O=C(O)Cc1ccc2c(c1)C(=O)Cc1cccnc1S2", "212 to 214 °C"],
  ["COc1c(C)c2c(c(NC(=O)N(C)C)c1C/C=C(\\C)CCC(=O)O)C(=O)OC2", "170 to 190 °C"],
  ["CN(C)C=C1CCc2ccn(Cc3ccccc3)c2C1=O", "116 to 118 °C"],
  ["CC(=O)Nc1ccc(C(C)=O)c2c1OCCO2", "142 to 144 °C"],
  ["COc1ccc2c(=O)c3ccc(O)c(OC)c3oc2c1", "120 to 121 °C"],
  ["Fc1ccc(/C=C/C2=CCN(Cc3c[nH]c4ncccc34)CC2)cc1F", "208 to 210 °C"],
  ["CCn1cncc1/C=C/c1cn(-c2ccccc2)nc1OCc1ccc(OCc2nc(-c3ccc(CC(=O)O)cc3)oc2C)c(OC)c1", "149 to 150 °C"],
  ["CNC(=O)COc1cccc(CCNC(=O)/C=C/c2cccnc2)c1", "140 to 141 °C"],
  ["CC(C)Oc1cc(CCCOc2nn(C)cc2CC(=O)O)n(Cc2ccc(Cl)cc2Cl)n1", "96 to 97 °C"]
]}
